Numbers sourced from patent US11066447B2.

Test system: C. parapsilosis MMX 2323 ATCC 22019
Assay: MIC assay (CLSI microdilution)
Type: cell-based, Candida parapsilosis
Conditions: ATCC22019, Without Tween-80; read-out: MIC
Description: Aureobasidin and test compounds (i.e., AbA derivatives of the present invention) were received from Kalexsyn, Inc. (Kalamazoo, Mich.) as powder and were stored at 4° C. until the day of assay. […] amphotericin was obtained from Sigma Aldrich and stored under like conditions. […] Ethanol (95%) was used as a solvent and diluent for all AbA compounds. Amphotericin B was tested from 0.06-64 μg/mL. […]
Numbered stars: 1 amine (or outer) side, 2 acyl side, 3 side chain; on linkers, the order of the positions; unused ones are H or OH. Square brackets hold non-standard residues; d marks the D form. Peptide text beside a SMILES is read from it. X1 = CC(C)N1CCN(c2ccc(-c3cccc(C[C@@H](C(=O)[*:2])N(C)[*:1])c3)cc2)CC1; X2 = CN1CCN(c2ccc(-c3cccc(C[C@@H](C(=O)[*:2])N(C)[*:1])c3)cc2)CC1; X10 = CN([C@@H](Cc1cccc(-c2ccc(N3CCNCC3)nc2)c1)C(=O)[*:2])[*:1]; Hmp(2R,3S) = CC[C@H](C)[C@@H](O)C(=O)O; NMeVal(β-OH) = CN[C@H](C(=O)O)C(C)(C)O; NMeV = CN[C@H](C(=O)O)C(C)C
Listed compounds paired with reported MIC
Record the result as a number with its unit.

Guide cases for MIC, answers given:
INSERT INTO measurements (compound, reported) VALUES
  ('CC[C@H](C)[C@@H]1NC(=O)[C@@H]2CCCN2C(=O)[C@H](Cc2cccc(-c3ccc(N4CCNCC4)nc3)c2)N(C)C(=O)[C@H](Cc2ccccc2)NC(=O)[C@H](C(C)C)N(C)C(=O)[C@@H]([C@@H](C)CC)OC(=O)[C@H](C(C)(C)O)N(C)C(=O)[C@H](CC(C)C)NC(=O)[C@H](C(C)C)N(C)C1=O [Compound 30] (cyclo(F[X10]PI[NMeV]L[NMeVal(β-OH)][Hmp(2R,3S)][NMeV]))', '2 µg/mL'),
  ('CC[C@H](C)[C@@H]1NC(=O)[C@@H]2CCCN2C(=O)[C@H](Cc2cccc(-c3ccc(N4CCN(C(C)C)CC4)cc3)c2)N(C)C(=O)[C@H](Cc2ccccc2)NC(=O)[C@H](C(C)C)N(C)C(=O)[C@@H]([C@@H](C)CC)OC(=O)[C@H](C(C)(C)O)N(C)C(=O)[C@H](CC(C)C)NC(=O)[C@H](C(C)C)N(C)C1=O [Compound 25] (cyclo(F[X1]PI[NMeV]L[NMeVal(β-OH)][Hmp(2R,3S)][NMeV]))', '1 µg/mL');

Query compound follows.
Q: Which MIC is reported for this compound? CC[C@H](C)[C@@H]1NC(=O)[C@@H]2CCCN2C(=O)[C@H](Cc2cccc(-c3ccc(N4CCN(C)CC4)cc3)c2)N(C)C(=O)[C@H](Cc2ccccc2)NC(=O)[C@H](C(C)C)N(C)C(=O)[C@@H]([C@@H](C)CC)OC(=O)[C@H](C(C)(C)O)N(C)C(=O)[C@H](CC(C)C)NC(=O)[C@H](C(C)C)N(C)C1=O [Compound 19] (cyclo(F[X2]PI[NMeV]L[NMeVal(β-OH)][Hmp(2R,3S)][NMeV]))
Ans: 1 µg/mL
